Biological target: Tyrosine-protein phosphatase non-receptor type 2 (Homo sapiens, UniProt P17706)
Sequence (P17706 whole entry): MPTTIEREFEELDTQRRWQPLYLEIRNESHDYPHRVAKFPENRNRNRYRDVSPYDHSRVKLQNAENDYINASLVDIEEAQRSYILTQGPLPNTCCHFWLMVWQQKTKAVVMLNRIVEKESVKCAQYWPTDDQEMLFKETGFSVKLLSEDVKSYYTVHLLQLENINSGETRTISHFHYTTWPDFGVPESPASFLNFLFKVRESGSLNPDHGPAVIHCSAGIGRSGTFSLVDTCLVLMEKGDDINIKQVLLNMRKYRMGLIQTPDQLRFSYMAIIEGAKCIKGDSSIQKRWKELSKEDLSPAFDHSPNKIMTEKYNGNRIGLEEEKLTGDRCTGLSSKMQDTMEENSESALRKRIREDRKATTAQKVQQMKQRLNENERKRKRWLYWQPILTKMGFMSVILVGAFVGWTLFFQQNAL
metric-name: IC50 (µM)
Kindly answer with a numeric value in µM, unit omitted.

Record excerpt, results attached:
| smiles-text | target-entity | metric-name | quantitative-result |
| --- | --- | --- | --- |
| O=C(O)c1cc2c(CCc3cccc(C(F)(F)F)c3)c(-c3ccccc3)oc2cc1O | Tyrosine-protein phosphatase non-receptor type 2 (Homo sapiens, UniProt P17706) | IC50 | 10 |
| O=C(O)c1cc2c(C#Cc3ccc(OC(F)(F)F)cc3)c(-c3ccccc3)oc2cc1O | Tyrosine-protein phosphatase non-receptor type 2 (Homo sapiens, UniProt P17706) | IC50 | 6.7 |
| O=C(O)c1cc2c(/C=C\c3cc(F)cc(F)c3)c(-c3ccccc3)oc2cc1O | Tyrosine-protein phosphatase non-receptor type 2 (Homo sapiens, UniProt P17706) | IC50 | 9.5 |
| O=C(O)c1cc2c(C#Cc3cccc(C(F)(F)F)c3)c(-c3ccccc3)oc2cc1O | Tyrosine-protein phosphatase non-receptor type 2 (Homo sapiens, UniProt P17706) | IC50 | 13 |
| O=C(O)c1cc2c(CCc3ccc(OC(F)(F)F)cc3)c(-c3ccccc3)oc2cc1O | Tyrosine-protein phosphatase non-receptor type 2 (Homo sapiens, UniProt P17706) | IC50 | 8.9 |

Find the measured IC50 of O=C(O)c1cc2c(/C=C\c3ccc(OC(F)(F)F)cc3)c(-c3ccccc3)oc2cc1O with Tyrosine-protein phosphatase non-receptor type 2 (Homo sapiens, UniProt P17706) as test system.
9.2

Find the measured IC50 of O=C(O)c1cc2c(C#Cc3cc(F)cc(F)c3)c(-c3ccccc3)oc2cc1O with Tyrosine-protein phosphatase non-receptor type 2 (Homo sapiens, UniProt P17706) as test system.
6.1

Find the measured IC50 of O=C(O)c1cc2c(CCc3cccc(F)c3)c(-c3ccccc3)oc2cc1O with Tyrosine-protein phosphatase non-receptor type 2 (Homo sapiens, UniProt P17706) as test system.
33
